Target: human kinase Mps-1 (Homo sapiens)
Construct: N-terminally GST-tagged human full length recombinant Mps-1 kinase; GST (N); purchased Invitrogen, Karslruhe, Germany PV4071
Sequence (P33981 whole entry): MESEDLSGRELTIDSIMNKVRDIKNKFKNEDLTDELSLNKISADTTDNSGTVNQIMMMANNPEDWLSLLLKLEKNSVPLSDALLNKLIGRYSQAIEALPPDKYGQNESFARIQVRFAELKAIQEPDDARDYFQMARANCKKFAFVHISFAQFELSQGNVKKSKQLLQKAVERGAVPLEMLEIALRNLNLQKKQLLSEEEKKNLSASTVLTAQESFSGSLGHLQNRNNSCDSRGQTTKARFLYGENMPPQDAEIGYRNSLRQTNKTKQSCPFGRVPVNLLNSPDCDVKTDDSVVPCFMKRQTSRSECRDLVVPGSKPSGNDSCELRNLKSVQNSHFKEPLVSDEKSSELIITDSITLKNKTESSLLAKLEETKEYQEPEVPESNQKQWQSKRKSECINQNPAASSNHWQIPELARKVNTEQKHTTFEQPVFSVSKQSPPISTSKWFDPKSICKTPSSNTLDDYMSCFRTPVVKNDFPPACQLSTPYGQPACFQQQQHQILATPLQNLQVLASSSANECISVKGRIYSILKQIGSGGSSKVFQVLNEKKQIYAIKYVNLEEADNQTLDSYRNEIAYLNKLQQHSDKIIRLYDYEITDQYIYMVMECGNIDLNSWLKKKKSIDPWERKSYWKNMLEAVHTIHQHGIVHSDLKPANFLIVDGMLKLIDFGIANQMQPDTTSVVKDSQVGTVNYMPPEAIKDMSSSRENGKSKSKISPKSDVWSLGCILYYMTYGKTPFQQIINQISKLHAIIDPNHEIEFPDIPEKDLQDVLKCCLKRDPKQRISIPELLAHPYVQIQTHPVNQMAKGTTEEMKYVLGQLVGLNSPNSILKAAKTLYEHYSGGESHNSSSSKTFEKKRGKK
Assay: Mps-1 kinase assay (TR-FRET)
Assay type: biochemical
Settings: N-terminally GST-tagged human full length recombinant Mps-1; 10 μM ATP; 1 μM peptide substrate; 15 min pre-incubation; 60 min at 22° C.
quantity.kind: pIC50
pIC50 (log units): -log10 of the concentration in mol/L.

>  <compound>
CCOc1cccc(-c2cn3c(-c4ccc(C(=O)NC5CC5)cc4)cnc3c(NCC(C)C)n2)c1 [Example 1-44]

>  <observed.value>
8.24

$$$$
>  <compound>
COc1ccc(-c2cn3c(-c4ccc(C(=O)NC5CC5)cc4)cnc3c(NCC(C)C)n2)cc1F [Example 1-62]

>  <observed.value>
8.17

$$$$
>  <compound>
CC(C)CNc1nc(-c2ccccc2Oc2ccccc2)cn2c(-c3ccc(C(=O)NC4CC4)cc3)cnc12 [Example 1-64]

>  <observed.value>
7.13

$$$$
>  <compound>
O=C(NC1CC1)c1ccc(-c2cnc3c(NCC4CCCO4)nc(-c4ccccc4CO)cn23)cc1Cl (stereo not shown) [Example 1-106]

>  <observed.value>
7.25

$$$$

Documented pIC50 of CC(C)CNc1nc(-c2ccc(-c3ccccc3)cc2)cn2c(-c3ccc(C(=O)NC4CC4)cc3)cnc12 [Example 1-49] : 8.14

Looking up CC(C)CNc1nc(-c2cccc(C(F)(F)F)c2)cn2c(-c3ccc(C(=O)NC4CC4)cc3)cnc12 [Example 1-35] , I see its pIC50 listed as 7.31

Summary for this compound, O=C(NC1CC1)c1ccc(-c2cnc3c(NCC4CCC4)nc(-c4ccccc4)cn23)cc1 [Example 2-73] : pIC50 is 8.64
